Cited source: PubChem BioAssay (NCI)

system: HCC-2998 colon; assay: NCI tumour cell line growth inhibition, 48 h
ENDPOINT: GI50

A selection of reference data follows.
- COc1ccccc1NC(=O)N/C(N)=N/c1nc2ccccc2s1: 375 nM
- CCCCCCCCOC(=O)c1cc(O)c(O)c(O)c1: 6000 nM

Switching to the query record.
Query: Form field: reported GI50 of COc1ccc(S(=O)(=O)N2CCCCC2)cc1NC(=O)c1[nH]c(C)c2c1CCCCC2=O
Result: 1730 nM

---

system: OVCAR-8 ovarian; assay: NCI tumour cell line growth inhibition, 48 h; in the data active = GI50 below about 0.43 µM; inactive = the rest
Give your call using only these classes: active, inactive

Below are worked cases with known answers.
• COc1cc2c3c(n(CCCn4cccn4)c(=O)c2cc1OC)-c1cc2c(cc1C3=O)OCO2 = inactive
• COc1ccc(/C=C2/CCOC2=O)cc1 = inactive

Query: I'd appreciate the recorded outcome for COc1ccc(S(=O)(=O)N2CCCCC2)cc1NC(=O)c1[nH]c(C)c2c1CCCCC2=O from this test.
Result: inactive

Query: I'd appreciate the recorded outcome for COc1cc(C(C)c2cc3c(cc2OCCOCCOc2cc4c(cc2C(C)c2cc(OC)c(OC)c(OC)c2)OCO4)OCO3)cc(OC)c1OC (configuration not stated) from this test.
Result: inactive

Query: I'd appreciate the recorded outcome for CCCCCn1ncc(-c2c(O)c(O)cc3c(O)c(-c4c(C)cc5c(-c6cnn(CCCCC)n6)c(O)c(O)cc5c4O)c(C)cc23)n1 from this test.
Result: active

Query: I'd appreciate the recorded outcome for COc1ccccc1NC(=O)N/C(N)=N/c1nc2ccccc2s1 from this test.
Result: active

Query: I'd appreciate the recorded outcome for O=c1c2ccccc2c(C=NCCNCCO)c2oc3ccccc3n12 from this test.
Result: inactive
